test: Fulvestrant solubility in castor oil based liquid formulations, HPLC assay; assay type: physicochemical; details: castor oil based liquid formulation, oil or lipid, castor oil q.s., 10% w/v ethanol, 10% w/v benzyl alcohol, 15% w/v isopropyl myristate; read-out: Solubility

MOLECULE	solubility / mg/mL
C[C@]12CC[C@@H]3c4ccc(O)cc4C[C@@H](CCCCCCCCC[S+]([O-])CCCC(F)(F)C(F)(F)F)[C@H]3[C@@H]1CC[C@@H]2O (stereo partly shown)	63.9

----------
assay: Fulvestrant solubility in castor oil based liquid formulations, HPLC assay; format: physicochemical; settings: castor oil based liquid formulation, oil or lipid, castor oil q.s., 10% w/v ethanol, 10% w/v benzyl alcohol, 15% w/v ethyl oleate; read-out: Solubility
ENDPOINT_NAME: solubility (mg/mL)

COMPOUND	VAL
C[C@]12CC[C@@H]3c4ccc(O)cc4C[C@@H](CCCCCCCCC[S+]([O-])CCCC(F)(F)C(F)(F)F)[C@H]3[C@@H]1CC[C@@H]2O (stereo partly shown)	66.8

----------
test: Fulvestrant solubility in castor oil based liquid formulations, HPLC assay; assay type: physicochemical; settings: castor oil based liquid formulation, oil or lipid, castor oil q.s., 10% w/v ethanol, 10% w/v benzyl alcohol, 0.2% w/v polysorbate 80; read-out: Solubility

COMPOUND	solubility
C[C@]12CC[C@@H]3c4ccc(O)cc4C[C@@H](CCCCCCCCC[S+]([O-])CCCC(F)(F)C(F)(F)F)[C@H]3[C@@H]1CC[C@@H]2O (stereo partly shown)	95 mg/mL

----------
assay: Fulvestrant solubility in castor oil based liquid formulations, HPLC assay; type: physicochemical; details: castor oil based liquid formulation, oil or lipid, castor oil q.s., 10% w/v ethanol, 10% w/v benzyl alcohol, 0.05% w/v polysorbate 80; read-out: Solubility
ENDPOINT_NAME: solubility

MOLECULE	VAL
C[C@]12CC[C@@H]3c4ccc(O)cc4C[C@@H](CCCCCCCCC[S+]([O-])CCCC(F)(F)C(F)(F)F)[C@H]3[C@@H]1CC[C@@H]2O (stereo partly shown)	76.5 mg/mL

----------
experiment: Fulvestrant solubility in castor oil based liquid formulations, HPLC assay; format: physicochemical; conditions: castor oil based liquid formulation, oil or lipid, castor oil q.s., 10% w/v ethanol, 10% w/v benzyl alcohol, 0.16% w/v polysorbate 80; read-out: Solubility
ENDPOINT_NAME: solubility (mg/mL)

COMPOUND	ENDPOINT_NAME	READOUT_UNITS	VAL
C[C@]12CC[C@@H]3c4ccc(O)cc4C[C@@H](CCCCCCCCC[S+]([O-])CCCC(F)(F)C(F)(F)F)[C@H]3[C@@H]1CC[C@@H]2O (stereo partly shown)	solubility	mg/mL	90
